- Test system: A498 renal
- Experiment notes: NCI tumour cell line growth inhibition, 48 h
Measured metric: TGI

Compound	TGI
O=C(c1cccs1)N(Cc1cccnc1)C(=S)N(Cc1cccnc1)C(=O)c1cccs1	97.4 µM
CC(C)N1[C@@H]2CCCC[C@H]2N(C(C)C)P1(=O)C(=O)/C=C/c1ccccc1	16.9 µM
COc1ccc2nc(-c3cc4c([nH]c5ccccc54)c(-c4ccc(F)c(F)c4)n3)[nH]c2c1	56.6 µM
COc1ccc2c(c1)OC(c1ccccc1O)CC2=O (stereo not given)	> 100 µM

Take each entry in turn and give its TGI.
1. COc1cccc(C2c3cc4c(cc3OC(N3CCCCC3)C2C)OCO4)c1OC (stereo not given)
2. N#Cc1nn(-c2cc(=O)[nH]c3ccc(Br)cc23)c(N)c1C#N
3. Cc1ccc(NC(=O)CC2C(=O)Nc3ccccc3S2=O)c(C)c1 (stereo not given)
4. CCCCCCCCCCCCC(CCCCCCCCCCCC)OP(=O)(O)O
5. C[C@]12CCC(=O)C=C1CC[C@@H]1[C@@H]2[C@@H](O)C[C@@]2(C)[C@H]1CC[C@]2(O)C(=O)COC(=O)C1CCCC1
6. Cn1c(=O)n2n(c1=O)[C@@H](c1ccccc1)[C@H]2c1ccccc1

Resp:
1. 28.4 µM
2. > 100 µM
3. 61.3 µM
4. 52.8 µM
5. > 100 µM
6. > 100 µM

###

Give TGI for every item shown.
- Test system: OVCAR-8 ovarian
- Experiment notes: NCI tumour cell line growth inhibition, 48 h
Numbers only, in µM.

Compound	TGI (µM)
Cc1cc(O)c2c(c1)CC(O)C1=C2C(=O)c2c(O)ccc(OC3CC(O)C(OC4CC(OC5CCC(O)C(C)O5)C(O)C(C)O4)C(C)O3)c2C1=O (centres undefined)	3.51

Next compound, please.
Req: What does the data say about its TGI? Entry: Oc1cccc2c1[nH]c1c(C3=C[C@@]4(O)CC/C=C\CCCCN5CC[C@@H]3[C@]3(CC6/C=C\CCCCN6[C@H]34)C5)nccc12 (some centres undefined)
Resp: 2.88

###

- Test system: K-562 leukemia
- Experiment notes: NCI tumour cell line growth inhibition, 48 h
Measured metric: TGI

Example entries begin here.
Compound	System under test	Measured metric	Reported result
Cc1ccc(C2=NN(c3ccc(S(N)(=O)=O)cc3)C(c3cn(-c4ccccc4)nc3-c3ccccc3)C2)cc1 (stereo not given)	K-562 leukemia	TGI	> 100 µM
COc1cc2c3c(n(CCCN4CCCC(O)C4)c(=O)c2cc1OC)-c1cc2c(cc1C3=O)OCO2 (stereo not given)	K-562 leukemia	TGI	6.87 µM
CC1=CC(=O)/C(=C/n2c(=S)[nH]c3ccc([N+](=O)[O-])cc32)C(=O)O1	K-562 leukemia	TGI	> 100 µM
COC(=O)[C@@H]1OC(C)(c2ccccc2)O[C@H]1C(=O)OC	K-562 leukemia	TGI	> 100 µM

Consider now this further compound.
Req: # lookup: TGI of Cc1ccccc1NC(=O)c1ccc([N+](=O)[O-])cc1
Resp: > 100 µM

###

- System: M14 melanoma
- Experiment notes: NCI tumour cell line growth inhibition, 48 h
Measured metric: TGI (µM)
One number for each entry, in µM.

Compound	System under test	TGI (µM)
Nc1c2ccccc2nc2ccccc12 (tested in a mixture with another compound)	M14 melanoma	3.92

Would you mind giving TGI for every compound in the list below?
1. COc1ccc(N=CN(C)C)c(C)c1
2. Nc1nc(-c2ccccc2)cc(-c2ccc(Cl)cc2)c1-c1nc2ccccc2o1
3. N#C[S-].[Ce+3].c1cnc2c(c1)ccc1cccnc12.c1cnc2c(c1)ccc1cccnc12.c1cnc2c(c1)ccc1cccnc12
4. COc1ccc2nc(-c3cc4c([nH]c5ccccc54)c(-c4ccc(F)c(F)c4)n3)[nH]c2c1

Resp:
55.5
35.4
3.42
16.9

###

- System: SNB-19 CNS
- Experiment notes: NCI tumour cell line growth inhibition, 48 h
Measured metric: GI50

Consider the following illustrative entries.
Compound	System under test	GI50
Nc1c2ccccc2nc2ccccc12 (tested in a mixture with another compound)	SNB-19 CNS	2.64 µM
Cc1ccc(C2=NN(c3ccc(S(N)(=O)=O)cc3)C(c3cn(-c4ccccc4)nc3-c3ccccc3)C2)cc1 (configuration not stated)	SNB-19 CNS	> 100 µM
Cc1nn(C)c2cc(N(C)c3ccnc(Nc4cccc(S(N)(=O)=O)c4)n3)ccc12	SNB-19 CNS	13.2 µM

Please give GI50 for each item listed below.
1. COc1ccc2c(c1)C(=O)c1c-2c(NCCN(C)C)nc2ccccc12
2. CC(CN)[C@@H]1CC[C@]2(CO)CC[C@]3(C)[C@H](CC[C@@H]4[C@@]5(C)CCC(N)C(C)(C)[C@@H]5CC[C@]43C)[C@@H]12 (some centres not stated)

Resp:
1. 3.28 µM
2. 1.79 µM

// each listed compound needs a value for GI50
1. N#Cc1nn(-c2cc(=O)[nH]c3ccc(Br)cc23)c(N)c1C#N
2. Nc1nc(-c2ccccc2)cc(-c2ccc(Cl)cc2)c1-c1nc2ccccc2o1
3. COc1cc(N2CCC(N3CCN(C)CC3)CC2)ccc1Nc1ncc(Cl)c(Nc2ccccc2S(=O)(=O)C(C)C)n1
4. O=C(O)c1ccccc1Nc1ccc2nnc(-c3ccncc3)n2n1
5. Nc1nc(-c2ccc(Cl)cc2)cc(-c2ccccc2)c1-c1nc2ccccc2o1
6. Oc1c(CN2CCN(c3ccccc3F)CC2)cc(Br)c2cccnc12
7. Nc1ccccc1C#Cc1ccccc1C#Cc1cnccn1

Resp:
["> 100 µM", "17.7 µM", "2.07 µM", "14.2 µM", "18.6 µM", "1.14 µM", "20.1 µM"]

###

- Tested on: SK-MEL-2 melanoma
- Experiment notes: NCI tumour cell line growth inhibition, 48 h; in the data active = GI50 below about 0.43 µM; inactive = the rest
Your answer must be one of the following: active, inactive

Req: Could you kindly confirm the outcome this assay logged for C=CCSSc1ncnc2c1ncn2C1OC(CO)C(O)C1O (stereo not given) ?
Resp: inactive

Req: How did this test come out for COc1cnc2c(c1)C(=O)c1c-2n(CCCNC(C)C)c(=O)c2cc([N+](=O)[O-])ccc12 ?
Resp: active

Req: Per the records of this test, what outcome belongs to Oc1c(I)cc(I)cc1CN(Cc1ccccn1)Cc1ccccn1 ?
Resp: inactive

Req: For Cc1cc2nc(C(Cl)Cl)nc(-c3ccccc3)n2n1 , which call appears in the assay record?
Resp: inactive

Req: Status in this test for CCN(CC)CC[n+]1cc2cc(OC)c(OC)cc2c2ccc3cc4c(cc3c21)OCO4 ?
Resp: inactive

###

What TGI was measured for each of the following?
- Tested on: EKVX NSCLC
- Experiment notes: NCI tumour cell line growth inhibition, 48 h
Where a SMILES comes first, the peptide text is derived from it. [ ]: non-standard residue; d: D form. The star is where a group is joined. Bn2Val = CC(C)[C@@H](C(=O)*)N(Cc1ccccc1)Cc1ccccc1; NH(3,4-diMeO-benzyl) = COc1ccc(CN*)cc1OC; NMeV = CN[C@H](C(=O)O)C(C)C

As a guide, the following entries are already answered.
Compound	Measured metric	Reported result
CCN1CCN(c2ccc(Nc3ncc4ccc5ncn(C(C)C)c5c4n3)nc2)CC1	TGI	0.563 µM
COC1=C(OC)[C@]2(OC)c3c(O)c(OC)c4c(c3O[C@@]23O[C@@H](c2ccccc2)CC=C3C1=O)[C@@H](O)C[C@H](c1ccccc1)O4	TGI	3.08 µM
O=C(COc1ccc(Cl)cc1Cl)N/N=C/C=C/c1ccc([N+](=O)[O-])o1	TGI	> 100 µM

Would you mind listing TGI for each of the following compounds?
1. CCN(CC)CCCNc1ncc(C)c2c1c1ccc3c(O)cccc3c1n2C
2. Cc1nn(C)c2cc(N(C)c3ccnc(Nc4cccc(S(N)(=O)=O)c4)n3)ccc12

Resp:
1: 6.87 µM; 2: > 25 µM

Each compound below has a reported value. Please supply its TGI.
1. CCn1c2ccccc2c2cc(NC(=O)c3c(NCCNCCO)nc(=O)[nH]c3C)ccc21
2. N#C[S-].[Ce+3].c1cnc2c(c1)ccc1cccnc12.c1cnc2c(c1)ccc1cccnc12.c1cnc2c(c1)ccc1cccnc12
3. N#CC(c1ccccc1)N(CCOCCOCCN(C(=O)c1cccc2ccccc12)C(C#N)c1ccccc1)C(=O)c1cccc2ccccc12 (stereo unspecified)
4. COc1cc(N2CCC(N3CCN(C)CC3)CC2)ccc1Nc1ncc(Cl)c(Nc2ccccc2S(=O)(=O)C(C)C)n1

Resp:
["> 100 µM", "17.4 µM", "> 100 µM", "11.5 µM"]

Batch of 2 compounds: report TGI for each.
1. O=c1c2cc(S(=O)(=O)Nc3c(Cl)cccc3Cl)ccc2ncn1NS(=O)(=O)c1ccc2ccccc2c1
2. C#CCCOC(=O)c1ccccc1OC(C)=O

Resp:
["> 62.5 µM", "> 100 µM"]

For every record below, what is its TGI?
1. Cn1c(=O)n2n(c1=O)[C@@H](c1ccccc1)[C@H]2c1ccccc1
2. CCOCCOC[C@H]1CCCN(c2ccnc3sc(C(N)=O)c(N)c23)C1
3. O=C1C=C2CC[C@H]3[C@@H]4CC[C@H](OC(=O)c5cccc6cc7ccccc7nc56)[C@H]4CC[C@@H]3[C@H]2CC1
4. CCOC(=O)N1C=CC(=C2C(=C3C=CN(C(=O)OCC)C=C3)C(=C3C=CN(C(=O)OCC)C=C3)C2=C2C=CN(C(=O)OCC)C=C2)C=C1
5. COc1ccc2c(c1)CC[C@@H]1[C@@H]2CC[C@]2(C)C(=O)/C(=C/c3ccc(O)c(OC)c3)C[C@@H]12
6. Nc1ccccc1C#Cc1ccccc1C#Cc1cnccn1
7. C=C1C(=O)O[C@H]2[C@H]1CC/C(COC(=O)NCc1cc(OC)cc(OC)c1)=C\CC[C@@]1(C)O[C@@H]21

Resp:
1. > 100 µM
2. > 100 µM
3. > 100 µM
4. > 100 µM
5. > 100 µM
6. 27.7 µM
7. 6.6 µM

For every item below, please supply its TGI.
1. CC[C@H]1C=CCC[C@@]2(C[C@@H]3CC[C@H]4[C@H](C(=O)OCCCCCCCCCCCCCCCC(=O)N(CCCN)C[C@@H](O)CCN)[C@]5(CCC[C@@H](C)O5)NC(=[N+]34)N2)O1
2. CN1CCc2cc(N)cc3c2C1Cc1ccc2c(c1-3)OCO2 (stereo unspecified)
3. COc1ccc(CNC(=O)[C@@H]2CCCN2C(=O)[C@@H]2CCCN2C(=O)[C@H](C(C)C)N(C)C(=O)[C@@H](NC(=O)[C@H](C(C)C)N(Cc2ccccc2)Cc2ccccc2)C(C)C)cc1OC (Bn2Val-V[NMeV]PP-{NH(3,4-diMeO-benzyl)})
4. CC1c2cc(c3c(c2O)CN([C@@H](C)C2CCCCC2)CO3)C(C)c2cc(c3c(c2O)CN([C@@H](C)C2CCCCC2)CO3)C(C)c2cc(c3c(c2O)CN([C@@H](C)C2CCCCC2)CO3)C(C)c2cc1c1c(c2O)CN([C@@H](C)C2CCCCC2)CO1 (stereo partly specified)
5. C=CCC1C(=O)Nc2cccc3ncn(c23)C1=O (stereo unspecified)

Resp:
2.66 µM
> 100 µM
26.7 µM
2.45 µM
> 100 µM

Batch of 6 compounds: report TGI for each.
1. COc1cc2c(cc1OC)-c1cc3ccc(OC)c(OC)c3c[n+]1CC2
2. Nc1nc(-c2ccccc2)cc(-c2ccc(Cl)cc2)c1-c1nc2ccccc2o1
3. COc1cc(/C=C2\C[C@H]3[C@@H]4CC=C5C[C@@H](OC(C)=O)CC[C@]5(C)[C@H]4CC[C@]3(C)[C@H]2OC(C)=O)ccc1OCCN1CCCCC1
4. Nc1ccc(-c2ccc(-c3nc4cc(Cl)c(Cl)cc4[nH]3)cc2)cc1
5. O=C(c1cccs1)N(Cc1cccnc1)C(=S)N(Cc1cccnc1)C(=O)c1cccs1
6. COC(=O)c1ccc(NCC2=CC(=O)C=CC2=O)cc1

Resp:
> 100 µM
27.7 µM
> 50 µM
> 100 µM
> 100 µM
28.2 µM

Provide each entry's TGI from the list below.
1. COc1cccc(Nc2nc(N)nc(N)c2N=O)c1
2. c1cc(C[S+]2CCCC2)sc1C[S+]1CCCC1
3. Cc1ccc(SSCCCCCS(=O)O)cc1
4. Cc1ccc(N2C(=O)C(Cl)=C(Cl)C2=O)cc1
5. CCCCCCCCCCCCCCCCCC[N+](C)(C)Cc1ccc(C[N+](C)(C)CCCCCCCCCCCCCCCCCC)cc1
6. CCOC(=O)c1cc(OC(=O)CC)c2c(OC)ccc(OC)c2c1

Resp:
> 100 µM
> 100 µM
> 100 µM
39.2 µM
43.1 µM
> 100 µM

Req: I'd like to know its TGI. The compound in question is COc1ccc(C2CC(=O)c3c(O)c(OC)c(OC)c(OC)c3O2)cc1O (stereo unspecified)
Resp: > 100 µM
